Test system: LOX IMVI melanoma
Test: NCI-60 one-dose screen, 48 h (100 = growth as untreated, 0 = no growth, -100 = all killed)
Settings: 10 µM unless noted
Experimental: Growth inhibition of the LOX IMVI human tumor cell line is measured as a screen for anti-cancer activity. Cells are grown in 96 well plates and exposed to the test compound for 48 hours. Compounds are tested at a single concentration, which is 10^-5 M for most compounds. The reported endpoint is percent growth (GI% or GIPRCNT), where numbers from 0 - 100% represent growth inhibition, and numbers from -100% - 0 represent cell death. For example, a value of 40 represents 60% growth inhibition. […]
This is part of a sample that, as a whole, favours compounds with a hit. Of some 83,000 tested, about 20% had one in any assay. Active and inactive are the calls of the source. The calls were made as follows: active = growth percent below 10; inactive = the rest.
Result Type: growth

A selection of reference data follows.
Molecule	growth
CC1=C(C(=O)/C=C/c2c[nH]c3ccccc23)C(c2ccccc2)NC(=S)N1 (centres undefined)	94.3% (inactive)
N#C/C(=C\c1cccc(C#N)c1)c1ccccc1	98.9% (inactive)
COc1ccc(/C=C/c2nc(Nc3cccc(NC(C)=O)c3)c3ccccc3n2)cc1	59.3% (inactive)
[O-][n+]1c(Cl)cc(Cl)c2ccccc21	97.4% (inactive)
O=S(=O)(NCCNc1nccc(-c2c(-c3cccc(F)c3)nc3sccn23)n1)c1ccc(Br)cc1	38.5% (inactive)
CC(=O)N1N=C(c2ccc(-n3ccc(C(F)(F)F)n3)c(F)c2)CC1c1ccc[nH]1 (centres undefined)	98.1% (inactive)

// growth (LOX IMVI melanoma) for Cc1ccc(NC(C(=O)c2ccccc2)c2ccccc2)cc1 (centres undefined) = 50.5% (inactive)

====

System: ACHN renal
Experiment: NCI-60 one-dose screen, 48 h (100 = growth as untreated, 0 = no growth, -100 = all killed)
Details: 10 µM unless noted
The panel holds about 83,000 compounds, 20% with a hit somewhere; the sample as a whole holds those more often. Activity calls are given as the source filed them. Rule for the calls: active = growth percent below 10; inactive = the rest.
Result Type: growth

A selection of reference data follows.
Compound	Target	growth
Cn1ccnc1C(=O)/C=C/c1ccc(CC(=O)Nc2ccc(Cl)cc2)cc1	ACHN renal	49.8% (inactive)
Nc1c(C(=O)Nc2cccc3cnccc23)sc2nc3c(cc12)C(=O)CCC3	ACHN renal	101% (inactive)
COc1ccc(/C=N/NC(=O)c2cnn3c2NC(c2ccccc2)C3)cc1OC (stereo not given)	ACHN renal	82.6% (inactive)
N#Cc1c(-c2cccc([N+](=O)[O-])c2)nc(SCC(=O)c2ccc(Cl)cc2)[nH]c1=O	ACHN renal	103% (inactive)

Could you now consider this next compound?
Summary for this compound, COc1cc2c(=O)n(CCCN(C)C)c3c4cc5c(cc4ccc3c2cc1OC)OCO5 : growth is 36.8% (inactive)

====

Test system: CCRF-CEM leukemia
Test: NCI-60 one-dose screen, 48 h (100 = growth as untreated, 0 = no growth, -100 = all killed)
Conditions: 10 µM unless noted
The panel holds about 83,000 compounds, 20% with a hit somewhere; the sample as a whole holds those more often.
Result Type: growth (%)
Write the number in % without appending the unit.

A selection of reference data follows.
Compound Smiles	U	growth
COc1cc2nc(-c3ccc(C(F)(F)F)cc3)cc(OCCCN3CCCC3)c2cc1OC	%	38.5
COc1ccc(/C=C2\Oc3cc(OCCCCCN4CCCCC4)ccc3C2=O)cc1OC	%	15.2
COC(=O)N[C@H]1CCc2c(Cl)c(OC)c(OC)c(OC)c2-c2ccc(SC)c(=O)cc21	%	1.53
CCOC(=O)c1cc(C(=O)c2ccc(OC)c(OC)c2)n2c1ccc1ccccc12	%	94

Could you now consider this next compound?
Summary for this compound, ClC1=C(Br)C(Br)(Br)C(=C(Br)Br)C1(Br)Br : growth is 25.1

====

Test system: HS 578T breast
Test: NCI-60 one-dose screen, 48 h (100 = growth as untreated, 0 = no growth, -100 = all killed)
Details: 10 µM unless noted
About 83,000 compounds went through this panel and 20% of them were active in at least one assay; those are over-represented in the sample as a whole.
As shown below, each of these molecules has a reported growth value.
Write the number in % without appending the unit.

A selection of reference data follows.
Molecule	Result Type	Quantitative Readout
CCN(CC)c1ccc(C(=O)c2ccccc2)cc1	growth	102
CCC(CC)NCC(C)(C)O	growth	107
COc1cc(/C=N/NC(=O)c2cnn3c2NC(c2ccccc2)C3)ccc1Oc1ccccc1 (stereo not given)	growth	37.8

// growth (HS 578T breast) for CN1[C@@H]2CC[C@H]1/C(=C\c1ccccc1)C(=O)/C2=C/c1ccccc1 = 33.7

// growth (HS 578T breast) for O=C(O)c1ccc(NCc2cn(-c3ccc(C(F)(F)F)cc3)nc2-c2ccc(C(=O)O)cc2)cc1 = 107

// growth (HS 578T breast) for CC1(C)CC(O)CCCCCCOc2c(CN)cccc2NC(=O)c2nc(cnc2N)-c2ccc(cc2)S1(=O)=O (stereo not given) = 13.2

// growth (HS 578T breast) for N#C/C(=C\c1cccc(C#N)c1)c1ccccc1 = 106

// growth (HS 578T breast) for CC(=O)N1c2ccccc2NC2=C(C(=O)NC2(C)C)C1c1ccco1 (stereo not given) = 83.3

====

System: OVCAR-4 ovarian
Assay: NCI-60 one-dose screen, 48 h
Details: 10 µM unless noted
The panel holds about 83,000 compounds, 20% with a hit somewhere; the sample as a whole holds those more often. Activity calls are given as the source filed them. Rule for the calls: active = growth percent below 10; inactive = the rest.
Pick one and only one: active, inactive

Here's what some known entries look like.
Molecule	Assigned Category
CCCCOc1ccc(/C(C)=N/Nc2cc(C)nc3ccc(Br)cc23)cc1	inactive
COc1cc(/C=C2\COc3ccc(-c4ccccc4)cc3C2=O)cc(OC)c1	inactive
O=C1Nc2cc(-c3ccc(NC(=O)C4CC4)cc3)ccc2/C1=C/c1ccc[nH]1	inactive

Hi, sorry to bother you, what did the test record for CCNC(=O)Oc1ccc(/C(=C(\C)c2ccccc2)c2ccc(OCCN(CC)CC)cc2)cc1 ? inactive

Hi, sorry to bother you, what did the test record for Cc1ccc(C(=O)/C(=C\c2ccc([N+](=O)[O-])cc2)S(=O)Cc2ccc(F)cc2)cc1 (stereo not given) ? inactive

Hi, sorry to bother you, what did the test record for O=C1c2cccc3c(-c4ccc5c(c4)ncn5C4CCCCC4)ccc(c23)C(=O)N1CCO ? inactive

Hi, sorry to bother you, what did the test record for Oc1cccc(CCc2ccc(Oc3cc(CCc4cccc(O)c4)cc(O)c3O)cc2)c1 ? inactive

Hi, sorry to bother you, what did the test record for Cn1ccnc1C(=O)/C=C/c1ccc(CC(=O)Nc2ccc(F)cc2)cc1 ? inactive

Hi, sorry to bother you, what did the test record for COc1ccc(/C=C2\Oc3cc(OCCCCCN4CCCCC4)ccc3C2=O)cc1OC ? inactive

Hi, sorry to bother you, what did the test record for Cc1ccc(CNc2c3ccccc3nc3cc(NC(=O)CCN4CCCC4)ccc23)cc1 ? active

====

System: UO-31 renal
Assay: NCI-60 one-dose screen, 48 h
Settings: 10 µM unless noted
Compounds without any hit were thinned out: in the full panel of roughly 83,000, 20% have a hit. Active and inactive are the calls of the source. How the source made its calls: active means growth percent below 10; inactive means the rest.
Pick one and only one: label 1 (active), label 0 (inactive)

Here's what some known entries look like.
Compound	Target	Assigned Category
CC(C)=CCC[C@](C)(O)[C@H]1CC[C@]2(C)[C@@H]1CC[C@@H]1[C@@]3(C)C/C(=C/c4ccccc4)C(=O)C(C)(C)[C@@H]3CC[C@]12C	UO-31 renal	label 0
O=S(=O)(Nc1ccc(-n2cnc3cc(-c4ccc(O)cc4)ccc32)cc1)c1ccccc1	UO-31 renal	label 0
O=C1c2cccc3c(-c4ccc5c(c4)ncn5C4CCCCC4)ccc(c23)C(=O)N1c1nc2ccccc2s1	UO-31 renal	label 0
O=S(=O)(NCCNc1nccc(-c2c(-c3cccc(O)c3)nc3occn23)n1)c1ccc(Cl)cc1	UO-31 renal	label 0
Cn1ccnc1C(=O)/C=C/c1ccc(CC(=O)Nc2ccc(F)cc2)cc1	UO-31 renal	label 0

Hi, sorry to bother you, what did the test record for Cc1ccc(NC(=O)c2cc(-c3nc4ccccc4s3)c(=O)n(NS(=O)(=O)c3ccc(Cl)cc3)c2N)cc1 ? label 0

Hi, sorry to bother you, what did the test record for O=C1Nc2cc(-c3ccc(NS(=O)(=O)c4ccccc4)cc3)ccc2/C1=C/c1ccc[nH]1 ? label 0

Hi, sorry to bother you, what did the test record for COc1cc(-c2csc(NC(=O)c3cc(F)cc(C(F)(F)F)c3)n2)cc(OC)c1OC ? label 0

Hi, sorry to bother you, what did the test record for N#CC1=C(N)Oc2c(cnn2-c2ccc([N+](=O)[O-])cc2[N+](=O)[O-])C1c1ccccc1 (configuration not stated) ? label 0

Hi, sorry to bother you, what did the test record for O=S(=O)(NCCNc1nccc(-c2c(-c3cccc(F)c3)nc3sccn23)n1)c1ccccc1 ? label 0

Hi, sorry to bother you, what did the test record for COc1ccc(C(=O)c2nc3ccccc3n2CC(=O)c2ccc(Cl)cc2)cc1 ? label 0

Hi, sorry to bother you, what did the test record for CCCNC(=O)Oc1ccc(/C(=C(\C)c2ccccc2)c2ccc(OCCCN(C)C)cc2)cc1 ? label 0

Hi, sorry to bother you, what did the test record for C#Cc1cccc(NC(=O)Nc2cccc(NC(=O)CCl)c2)c1 ? label 1

Hi, sorry to bother you, what did the test record for Nc1nc(Nc2ccccc2SSc2ccccc2Nc2nc(N)nc(-c3cccs3)n2)nc(-c2ccsc2)n1 ? label 1

Hi, sorry to bother you, what did the test record for C=C(C)[C@@H]1CC[C@]2(C(=O)N[C@@H](Cc3ccccc3)C(=O)OC)CC[C@]3(C)[C@H](CC[C@@H]4[C@@]5(C)CCC(=O)C(C)(C)[C@@H]5CC[C@]43C)[C@@H]12 ? label 0

Hi, sorry to bother you, what did the test record for COc1ccc(CC(C)=C(c2ccc(OCCN3CCCCCC3)cc2)c2ccc(OCCN3CCCCCC3)cc2)cc1 ? label 1

Hi, sorry to bother you, what did the test record for COc1ccc(OC)c(-c2cc(-c3ccc(Cl)cc3)c3c(N)c(C(=O)c4ccc(Cl)cc4)sc3n2)c1 ? label 0

Hey, just so you know, these numbers are from PubChem BioAssay (NCI).
